system: Nakaseomyces glabratus; assay: Antifungal activity against azole-resistant Candida glabrata by broth microdilution assay; assay type: functional, organism-based
Entries and their IC50
Report only the number, with the unit µg/mL understood.

Example entries begin here.
* OC(Cn1cncn1)(Cn1cncn1)c1ccc(F)cc1F [FLUCONAZOLE] | 256
* Oc1cc2c(cc1O)[C@@H]1Oc3cc4c(cc3[C@@H]1CO2)OCO4 | 32

Attention now shifts to the item below.
Request body: readout IC50, system Nakaseomyces glabratus, query C[C@@H](c1ncncc1F)[C@](O)(Cn1cncn1)c1ccc(F)cc1F [VORICONAZOLE] . Return the value.
8

* * *

test system: Pichia kudriavzevii; assay: Antifungal activity against azole-resistant Candida krusei by broth microdilution assay; assay type: functional, organism-based
measured_attribute: IC50 (µg/mL)
Report only the number, with the unit µg/mL understood.

Example entries begin here.
• OC(Cn1cncn1)(Cn1cncn1)c1ccc(F)cc1F = 128
• C[C@@H](c1ncncc1F)[C@](O)(Cn1cncn1)c1ccc(F)cc1F = 1

Attention now shifts to the item below.
// returns reported IC50 for input "Oc1cc2c(cc1O)[C@@H]1Oc3cc4c(cc3[C@@H]1CO2)OCO4"
128
